# Tested on: HT29 colon
# Assay explanation: NCI-60 one-dose screen, 48 h
# Test parameters: 10 µM unless noted
This is part of a sample that, as a whole, favours compounds with a hit. Of some 83,000 tested, about 20% had one in any assay. Active and inactive are the calls of the source. The calls were made as follows: active = growth percent below 10; inactive = the rest.
Returns: one label drawn from active, inactive

Query: What classification did COc1cccc(NC(=O)c2sc3nc(C)c(C(C)=O)cc3c2N)c1 end up with in this test?
Result: inactive

Query: Record request — test call for CC(C)CC1C(=O)N2CCC[C@H]2C2(O)O[C@](NC(=O)C3C=C4c5cccc6[nH]c(Br)c(c56)C[C@H]4N(C)C3)(C(C)C)C(=O)N12 (stereo not given in full)
Result: inactive

Query: Called result for CN1CCN(c2nc(NCCCNc3ccnc4cc(Cl)ccc34)c3ccccc3n2)CC1
Result: active

Query: // outcome(item) with item = C=CC(COC(c1ccccc1)(c1ccccc1)c1ccccc1)N(CC)CC (stereo not given)
Result: inactive

Query: Per the assay record, what outcome was assigned to C=C1C(=O)O[C@H]2[C@H]1CC/C(COC(=O)c1cc3cc(OC)ccc3[nH]1)=C\CC[C@@]1(C)O[C@@H]21 ?
Result: active

Query: // param item: O=S(=O)(Nc1ccc(Cl)c(F)c1)c1ccc(-c2cnc(C3CC3)o2)cc1 ; yields the recorded call
Result: active

Query: Returns: the outcome recorded for C#CCOc1ccc2ncnc(N3CCC(NC(=O)CCl)CC3)c2c1 in this assay.
Result: inactive

Query: What was the test verdict on Fc1ccc2[nH]cc(SSc3c[nH]c4ccc(F)cc34)c2c1 ?
Result: inactive

Query: Please share the test call associated with CCOc1nc(-c2ccccc2)cc2c(O)c(C(=O)N/N=C/c3ccc(O)cc3O)[nH]c(=O)c12 .
Result: inactive

Query: Could you please tell me the result logged for O=C1Nc2c(ccc(Cl)c2Cl)/C1=C\c1cc(C(F)(F)F)cc(C(F)(F)F)c1 in this assay?
Result: active

Query: Outcome logged for O=C(COc1ccc(/C=C2\COc3ccccc3C2=O)cc1)Nc1nccs1 in this assay:
Result: inactive

Query: Called result for O=C(/C=C/C=C/c1ccc2c(c1)OCO2)N/N=C\c1ccc(O)cc1O
Result: inactive

Query: I would be grateful if you could indicate the recorded call for O=C1NC(=S)N[C@H]1CC(=O)n1cnc2ccccc21 .
Result: inactive

Query: Status in this test for COc1ccc(C(=O)c2sc3nc4c(c(-c5cccnc5)c3c2N)CCCC4)cc1OC ?
Result: inactive

Query: Outcome logged for CCN(CC)CCCCNc1c2ccc(Cl)cc2nc2ccc(OC)cc12 in this assay:
Result: active

Query: Give the logged outcome of this assay for the following compound: COC(=O)c1ccc(Cn2cnc3c(N)ncnc32)cc1
Result: inactive

Query: What call does the record list for CN(C)C(=S)N=Nc1c(O)[nH]c2ccccc12 ?
Result: inactive

Query: How was COc1ccc(O)c(N=Nc2nccs2)c1 classified in this test?
Result: inactive

Query: Identify the outcome logged in this assay for the compound shown: COc1ccc2c(c1)C(=O)/C(=C/c1ccccn1)CC2
Result: inactive

Query: Entry O=S(=O)(Nc1ccc(OC(F)F)cc1)c1ccc(-c2cnc(C3CC3)o2)cc1 : call = ?
Result: inactive

Query: So what was the verdict on Cc1ccc2c(C(C[N+](=O)[O-])c3ccccc3)c(-c3ccccc3)[nH]c2c1 (stereo not given) in this test?
Result: active

Query: What was the test verdict on CCN1CCN(c2nc(NCCCNc3ccnc4cc(Cl)ccc34)c3ccccc3n2)CC1 ?
Result: active

Query: What outcome does the record of this test show for Cc1ccc2oc(=O)cc(C3c4ccc([nH]4)C(c4cc(=O)oc5ccc(C)cc45)c4ccc([nH]4)C(c4cc(=O)oc5ccc(C)cc45)c4ccc([nH]4)C(c4cc(=O)oc5ccc(C)cc45)c4ccc3[nH]4)c2c1 (stereo not given) ?
Result: active

Query: Test call for this compound, please: Cc1ccc(/C=C2\SC(=S)N(CC(=O)NCCCN3CCOCC3)C2=O)cc1
Result: inactive

Query: Answer briefly: the call reported for CCNC(=O)Oc1ccc(/C(=C(\C)c2ccc(Cl)cc2)c2ccc(OCCN(CC)CC)cc2)cc1 in this assay.
Result: active

Query: Please share the test call associated with COc1cc2c(cc1O)CC[C@@H]1[C@@H]2CC[C@]2(C)[C@@H](OCCCN(C)C)CC[C@@H]12 .
Result: active

Query: For O=[N+]([O-])c1cnc(N2CCN(CC3CC3)CC2)nc1N1CCN(CC2CC2)CC1 , what call appears in the results of this test?
Result: inactive

Query: Record lookup: outcome of this test for FC(F)(F)c1nc2c(NCc3ccc(-c4ccccc4)cc3)cccc2[nH]1 ?
Result: inactive

Query: Hi team, can someone confirm the assay call for CCc1c(Nc2ccccc2C)nc(N)[nH]c1=O ?
Result: inactive

Query: recorded result category for Nc1n[nH]c2ccc([C@@H]3Nc4ccc5cn[nH]c5c4[C@H]4C5CCC(C5)[C@@H]34)cc12 (stereo not given in full) in this test
Result: inactive

Query: Can you look up the reported call for C=C1C(=O)O[C@H]2[C@H]1CC/C(COC(=O)NCc1ccc(OC)c(OC)c1)=C\CC[C@@]1(C)O[C@@H]21 for me?
Result: inactive

Query: Hey, what did the test say about O=[N+]([O-])c1ccccc1/C=N\NC(=S)N/N=C/c1ccccc1[N+](=O)[O-] ?
Result: inactive

Query: Kindly provide the recorded test outcome for the following compound: CSc1nc(NCCN2CCOCC2)c(C#N)c(-c2cccc([N+](=O)[O-])c2)n1
Result: inactive

Query: For this compound, state the assay outcome: O=C(CN1C(=O)/C(=C/c2ccc(Cl)cc2)SC1=S)NCCCN1CCOCC1
Result: inactive

Query: Called result for COc1cc2c(cc1-c1c(C)noc1C)ncc1nc(-c3ccccn3)n([C@H](C)COC(F)F)c12
Result: inactive

----------
# Test system: HCT-15 colon
# Assay explanation: NCI-60 one-dose screen, 48 h
# Test parameters: 10 µM unless noted
The panel holds about 83,000 compounds, 20% with a hit somewhere; the sample as a whole holds those more often. Activity calls are given as the source filed them. How the source made its calls: active means growth percent below 10; inactive means the rest.
Respond using exactly one of the listed classes: active, inactive

Query: Given CC(C)(C)c1cc(/C=N\NC(=O)/C=C/C=C/c2ccc3c(c2)OCO3)c(O)c(C(C)(C)C)c1 , state the outcome it received in this test.
Result: inactive

Query: What call does the record list for OCc1ccc(N2CCc3cccc(F)c3C2)cc1Cl ?
Result: inactive

Query: # lookup: test call for COc1ccc(-c2nn(-c3ccc(Cl)cc3)cc2-c2nc3ccccc3[nH]2)cc1
Result: inactive

Query: Any idea what this test logged for CCCn1c(=O)[nH]c(N)c([C@H]2c3ccccc3Oc3[nH]c(=O)n(CCC)c(=O)c32)c1=O ?
Result: inactive

Query: Dear colleague, could you share the recorded outcome for Nc1nc2ccc3[nH]ncc3c2c2c1CCCC2 when you have a moment?
Result: active

Query: // outcome(item) with item = CCCOc1cc2ccccc2cc1C(=O)Nc1nc(NC)c2c(ccc3nccc32)[nH]1
Result: active

Query: Just curious, what result did CCNC(=O)Oc1ccc(/C(=C(\C)c2ccc(Cl)cc2)c2ccc(OCCN(CC)CC)cc2)cc1 get here?
Result: active

Query: Hi team, can someone confirm the assay call for CCN(CC)S(=O)(=O)c1ccc(OC)c(NC(=O)c2[nH]c(C)c3c2CCCCC3=O)c1 ?
Result: inactive

Query: Entry Cc1ccccc1COc1ccc(-c2onc(C)c2-c2ccc(Cl)cc2)cc1 : call = ?
Result: inactive

Query: Given N#Cc1c(-c2ccc(Cl)cc2)nc(N/N=C/c2cccc(Br)c2)nc1N1CCOCC1 , state the outcome it received in this test.
Result: active

----------
# Tested on: UO-31 renal
# Assay explanation: NCI-60 one-dose screen, 48 h
# Test parameters: 10 µM unless noted
# Description: Growth inhibition of the UO-31 human tumor cell line is measured as a screen for anti-cancer activity. Cells are grown in 96 well plates and exposed to the test compound for 48 hours. Compounds are tested at a single concentration, which is 10^-5 M for most compounds. The reported endpoint is percent growth (GI% or GIPRCNT), where numbers from 0 - 100% represent growth inhibition, and numbers from -100% - 0 represent cell death. For example, a value of 40 represents 60% growth inhibition. […]
About 83,000 compounds went through this panel and 20% of them were active in at least one assay; those are over-represented in the sample as a whole. The source made the active and inactive calls. The calls were made as follows: active = growth percent below 10; inactive = the rest.
Lab note: assign the record to one of yes for active, no for inactive

Query: GET /call?item= CS(=O)(=O)c1ccc(-n2nc(-c3ccc(Br)cc3)c3ccccc3c2=O)cc1 returns the recorded outcome of this test.
Result: no

Query: For CSc1ccc(-c2ccccc(=O)c2O)cc1 , what call appears in the results of this test?
Result: yes

Query: Called result for CC1(C)CC[C@]2(C(=O)Nc3ccccn3)CC[C@]3(C)C(=CC[C@@H]4[C@@]5(C)C/C(=C/c6cccnc6)C(=O)C(C)(C)[C@@H]5CC[C@]43C)[C@H]2C1
Result: no
